# protocol.details: Chiral plasma pharmacokinetics of bupropion and hydroxybupropion
# assay.conditions: both, human, plasma, oral, t1/2 R/ R,R, bupropion+MDMA (M), CYP2B6 genotype reduced, plasma
reported.property: half-life (h)

| entry.smiles | observed.measurement |
| --- | --- |
| C[C@@H](NC(C)(C)C)C(=O)c1cccc(Cl)c1 | 7.5 |

---

# protocol.details: Chiral plasma pharmacokinetics of MDMA and its phase I and II metabolites after controlled MDMA administration
# Type: in vivo, human
# assay.conditions: human, plasma, im, placebo+MDMA (125 mg), CYP2D6 IM, n=3, plasma; read-out: t1/2 S (converted)
reported.property: half-life (h)

| compound | observed.measurement |
| --- | --- |
| CN[C@@H](C)Cc1ccc(OS(=O)(=O)O)c(O)c1 [S-DHMA 4-sulfate] | 12.1 |
| CN[C@@H](C)Cc1ccc(O)c(OS(=O)(=O)O)c1 [S-DHMA 3-sulfate] | 7 |
| CC(N)Cc1ccc2c(c1)OCO2 (stereo not drawn) | 10.6 |

---

# protocol.details: Chiral plasma pharmacokinetics of MDMA and its phase I and II metabolites after controlled MDMA administration
# Type: in vivo, human
# assay.conditions: both sexes, human, plasma, oral, placebo+MDMA (125 mg), CYP2D6 EM, n=13, plasma; read-out: Cmax R
Counter-ions that a name gives are not always drawn.
The entries below come with measured Cmax values attached.

| molecule | readout.units | Cmax |
| --- | --- | --- |
| CN[C@H](C)Cc1ccc2c(c1)OCO2 [R-MDMA, 3,4-methylenedioxymethamphetamine] | nM | 690 |
| CN[C@H](C)Cc1ccc(O)c(OS(=O)(=O)O)c1 [R-DHMA 3-sulfate] | nM | 150 |
| CN[C@H](C)Cc1ccc(OS(=O)(=O)O)c(O)c1 [R-DHMA 4-sulfate] | nM | 80 |
| CN[C@H](C)Cc1ccc(OS(=O)(=O)O)c(OC)c1 [R-HMMA sulfate] | nM | 370 |

---

# protocol.details: Chiral plasma pharmacokinetics of MDMA and its phase I and II metabolites after controlled MDMA administration
# Type: in vivo, human
# assay.conditions: human, plasma, im, placebo+MDMA (125 mg), CYP2D6 IM, n=3, plasma; read-out: Cmax S
Structures can show the parent of a compound that is named as a salt.
The entries below come with measured Cmax values attached.

| compound | Cmax |
| --- | --- |
| CN[C@@H](C)Cc1ccc(OS(=O)(=O)O)c(OC)c1 [S-HMMA sulfate] | 140 nM |
| CNC(C)Cc1ccc(OC2OC(C(=O)O)C(O)C(O)C2O)c(OC)c1 (stereo not shown) [S-HMMA glucuronide] | 99 nM |
| CN[C@@H](C)Cc1ccc(O)c(OS(=O)(=O)O)c1 [S-DHMA 3-sulfate] | 280 nM |
| CN[C@@H](C)Cc1ccc2c(c1)OCO2 | 720 nM |

---

# protocol.details: Chiral plasma pharmacokinetics of MDMA and its phase I and II metabolites after controlled MDMA administration
# Type: in vivo, human
# assay.conditions: both sexes, human, plasma, oral, 125 mg, placebo+MDMA (125 mg), CYP2D6 EM, n=13, plasma; read-out: t1/2 S (converted)
Counter-ions that a name gives are not always drawn.

| molecule | half-life |
| --- | --- |
| CN[C@@H](C)Cc1ccc(O)c(OS(=O)(=O)O)c1 [S-DHMA 3-sulfate] | 7.3 h |
| CN[C@@H](C)Cc1ccc2c(c1)OCO2 [S-MDMA, 3,4-methylenedioxymethamphetamine] | 4.5 h |
| CN[C@@H](C)Cc1ccc(OS(=O)(=O)O)c(OC)c1 [S-HMMA sulfate] | 6.6 h |
| CC(N)Cc1ccc2c(c1)OCO2 (stereo not shown) [S-MDA, 3,4-methylenedioxyamphetamine] | 9.2 h |

These measurements were taken from paper PMC4788153.
